Provide the recorded A1-Results R3 for the entries that follow.
targetDesc: UniProt P19111
Format: biochemical
Design: purchased Sigma Aldrich, St. Louis, MO P0114 (original source); P7640 (second source, 'new AP' condition only)
Give bare numbers.

OCCc1ccccc1    3.403

Hi, could you look up A1-Results R3 for each item in my list?
1. CCCCCCCCCCCCCC(=O)OC(C)C [Isopropyl Myristate]
2. CCCCCCCN
3. CN(C)Cc1ccccc1

1. 3.484
2. 2.862
3. 3.230

====

targetDesc: alkaline phosphatase (Bos taurus, UniProt P19111)
Sequence (P19111 20-506): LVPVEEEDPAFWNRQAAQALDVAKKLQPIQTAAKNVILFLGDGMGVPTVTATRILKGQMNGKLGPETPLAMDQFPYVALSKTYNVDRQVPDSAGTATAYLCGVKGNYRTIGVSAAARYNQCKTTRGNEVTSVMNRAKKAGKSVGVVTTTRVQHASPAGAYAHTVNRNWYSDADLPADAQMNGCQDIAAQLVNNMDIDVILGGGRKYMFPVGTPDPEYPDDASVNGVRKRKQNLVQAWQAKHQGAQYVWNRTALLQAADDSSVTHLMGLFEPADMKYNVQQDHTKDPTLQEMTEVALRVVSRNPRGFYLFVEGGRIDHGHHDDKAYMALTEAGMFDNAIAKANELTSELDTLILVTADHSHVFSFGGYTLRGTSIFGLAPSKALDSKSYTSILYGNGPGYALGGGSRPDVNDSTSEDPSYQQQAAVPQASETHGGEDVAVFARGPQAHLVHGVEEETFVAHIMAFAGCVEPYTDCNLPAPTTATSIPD
Type: biochemical
Parameters: purchased Sigma Aldrich, St. Louis, MO P0114 (original source); P7640 (second source, 'new AP' condition only)
reportedConditions: average of R1-R3; 1:100; 20 μL into 180 μL; 4 hours RT; PNPP 60 min; 405 nm
Would you kindly list A1-Results AVG for each of these compounds?
Numbers only.

// known answers, use as guide
CSc1ccc(C=O)cc1    3.344
CC(C)N(C)C    3.458

Measured on alkaline phosphatase (Bos taurus, UniProt P19111), C=CCCC=C has a documented A1-Results AVG of 3.496
